- tgt: Potassium voltage-gated channel subfamily H member 2 (Homo sapiens)
- Sequence (Q12809 whole entry): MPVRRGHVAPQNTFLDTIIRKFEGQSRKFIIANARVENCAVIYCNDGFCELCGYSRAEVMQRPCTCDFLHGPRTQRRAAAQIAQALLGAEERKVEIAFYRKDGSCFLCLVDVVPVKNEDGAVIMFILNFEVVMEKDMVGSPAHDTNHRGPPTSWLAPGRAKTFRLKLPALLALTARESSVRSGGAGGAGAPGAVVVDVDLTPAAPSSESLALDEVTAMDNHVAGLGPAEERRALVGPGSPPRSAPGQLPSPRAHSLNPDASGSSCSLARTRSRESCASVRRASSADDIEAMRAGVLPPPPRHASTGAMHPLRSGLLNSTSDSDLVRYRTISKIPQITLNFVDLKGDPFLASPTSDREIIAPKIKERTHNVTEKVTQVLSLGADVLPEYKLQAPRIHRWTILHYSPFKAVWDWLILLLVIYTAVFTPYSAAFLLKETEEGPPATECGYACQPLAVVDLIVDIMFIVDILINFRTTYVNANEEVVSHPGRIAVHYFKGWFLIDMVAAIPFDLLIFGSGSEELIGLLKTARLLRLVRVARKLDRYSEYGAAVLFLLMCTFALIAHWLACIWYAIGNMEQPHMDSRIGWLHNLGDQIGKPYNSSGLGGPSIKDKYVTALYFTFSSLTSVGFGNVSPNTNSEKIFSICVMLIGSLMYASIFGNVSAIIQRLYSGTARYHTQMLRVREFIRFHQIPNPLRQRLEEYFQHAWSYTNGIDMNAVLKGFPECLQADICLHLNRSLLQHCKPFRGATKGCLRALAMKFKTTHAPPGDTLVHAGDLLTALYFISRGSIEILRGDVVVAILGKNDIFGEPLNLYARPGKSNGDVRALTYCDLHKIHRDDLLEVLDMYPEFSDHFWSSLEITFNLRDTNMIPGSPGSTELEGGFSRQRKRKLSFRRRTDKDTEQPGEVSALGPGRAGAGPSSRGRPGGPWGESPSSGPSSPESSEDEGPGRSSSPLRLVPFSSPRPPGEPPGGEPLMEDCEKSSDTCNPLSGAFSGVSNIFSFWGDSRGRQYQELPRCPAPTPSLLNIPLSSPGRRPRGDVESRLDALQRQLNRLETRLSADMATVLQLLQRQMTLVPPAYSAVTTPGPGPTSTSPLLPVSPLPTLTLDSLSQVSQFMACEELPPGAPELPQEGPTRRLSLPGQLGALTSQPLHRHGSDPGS
- experiment_summary: Electrophysiological Stimulation Protocol
pIC50: −log10 of the molar value.
property_label: pIC50

INSERT INTO measurements (molecule, result) VALUES
  ('CC(O)c1ccc(OCC#Cc2cnc(N3CCC4(CC3)Cc3ccccc3[C@H]4N)c(CO)n2)cc1 (stereo partly specified) [US20230339882, Example A71]', '< 4.70');

----------
The compounds listed here are annotated with their pIC50.
- tgt: Tyrosine-protein phosphatase non-receptor type 11 (Homo sapiens, UniProt Q06124)
- Sequence (Q06124 whole entry): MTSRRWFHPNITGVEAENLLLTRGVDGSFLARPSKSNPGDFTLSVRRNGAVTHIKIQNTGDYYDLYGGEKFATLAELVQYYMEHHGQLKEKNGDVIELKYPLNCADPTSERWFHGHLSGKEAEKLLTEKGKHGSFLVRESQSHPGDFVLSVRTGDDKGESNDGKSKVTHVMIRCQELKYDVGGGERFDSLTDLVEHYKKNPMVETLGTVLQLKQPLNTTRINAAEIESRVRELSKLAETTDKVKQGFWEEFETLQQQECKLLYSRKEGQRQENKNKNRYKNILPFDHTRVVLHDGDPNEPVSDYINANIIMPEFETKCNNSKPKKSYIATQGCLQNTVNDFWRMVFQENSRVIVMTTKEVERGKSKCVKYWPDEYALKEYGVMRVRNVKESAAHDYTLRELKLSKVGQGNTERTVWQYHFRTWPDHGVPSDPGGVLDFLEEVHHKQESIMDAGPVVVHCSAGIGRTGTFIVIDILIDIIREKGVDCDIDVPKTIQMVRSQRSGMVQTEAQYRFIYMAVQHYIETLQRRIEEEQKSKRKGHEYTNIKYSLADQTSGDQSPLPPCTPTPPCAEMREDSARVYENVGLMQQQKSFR
- experiment_summary: SHP2 Allosteric Inhibitory Enzyme Activity Assay
pIC50: −log10 of the molar value.
property_label: pIC50

INSERT INTO measurements (compound, result) VALUES
  ('N[C@@H]1c2ccccc2CC12CCN(c1ncc(C#CCNc3ccc4c(c3)NC(=O)CC4)nc1CO)CC2 [US20230339882, Example A64]', 8.59),
  ('CNC(=O)c1ccc(OCC#Cc2cnc(N3CCC4(CC3)Cc3ccccc3[C@H]4N)c(CO)n2)cc1 [US20230339882, Example A72]', 8.59),
  ('N[C@@H]1c2ccccc2CC12CCN(c1ncc(C#CCOc3ccc4ccc(=O)[nH]c4c3)nc1CO)CC2 [US20230339882, Example A24]', 8.62),
  ('N[C@@H]1c2ccccc2CC12CCN(c1ncc(C#CCOc3ccc(C(F)(F)F)nc3)nc1CO)CC2 [US20230339882, Example A63]', 8.59);
